Please provide measured Fluorescence Signal Value for the entries that follow.
- TGT: T1, human PCSK9 (PCSK9 antigen, SEQ ID NO. 53) (human, UniProt A8T644 31-152; Q8NBP7 153-692, Biotin-labelled on amines in the MSD-SET and sorting experiments; positions not given.)
- T1 construct: Biotin-labelled in MSD-SET; also called PCSK9-WT; PCSK9 protein
- PROTOCOL NOTES: flow cytometry, PCSK9 left on CHO-LDLR cells (anti-His-FITC) after premix with 1000 nM antibody
Reply with the value as a number alone.

query: So what's the measured Fluorescence Signal Value for this one? ADI-10087 (antibody, human IgG2, kappa, V domains shown, also called anti-PCSK antibody of the invention) VH: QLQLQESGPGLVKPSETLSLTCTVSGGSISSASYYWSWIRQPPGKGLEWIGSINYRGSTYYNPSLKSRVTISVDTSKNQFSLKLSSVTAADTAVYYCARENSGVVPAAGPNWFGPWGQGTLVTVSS VL: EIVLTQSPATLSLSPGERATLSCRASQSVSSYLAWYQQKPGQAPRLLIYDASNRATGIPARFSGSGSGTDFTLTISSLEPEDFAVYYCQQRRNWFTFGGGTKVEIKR
result: 5090

query: So what's the measured Fluorescence Signal Value for this one? ADI-10090 (antibody, human IgG2, kappa, V domains shown, IgG) VH: QLQLQESGPGLVKPSETLSLTCTVSGGSIWSSSYYWTWIRQPPGKGLEWIGSINYRGSTYYNPSLKSRVTISVDTSKNQFSLKLSSVTAADTAVYYCARENSGVVPAAGPNWFDPWGQGTLVTVSS VL: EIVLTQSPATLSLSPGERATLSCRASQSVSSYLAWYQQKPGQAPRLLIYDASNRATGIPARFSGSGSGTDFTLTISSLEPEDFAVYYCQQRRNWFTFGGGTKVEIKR
result: 4820

query: So what's the measured Fluorescence Signal Value for this one? ADI-10088 (antibody, human IgG2, kappa, V domains shown, IgG) VH: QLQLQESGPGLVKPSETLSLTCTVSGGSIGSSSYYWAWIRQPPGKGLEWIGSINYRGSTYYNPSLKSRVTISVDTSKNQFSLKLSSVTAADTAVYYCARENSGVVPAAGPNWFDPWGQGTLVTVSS VL: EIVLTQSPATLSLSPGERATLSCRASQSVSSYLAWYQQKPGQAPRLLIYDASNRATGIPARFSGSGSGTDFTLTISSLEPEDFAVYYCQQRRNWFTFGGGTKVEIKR
result: 5220
